Entries and their pIC50
Tested on: KRAS G12D mutant pancreatic cancer cell line AsPC-1
method_description: Cell viability assay using KRAS G12D mutant cells (AsPC-1, 3D culture, celltiter-glo 3D)
Assay type: cell-based
test_conditions: Homo sapiens, ASPC1, 5th day after compound treatment
Entry type: numeric. Quantity: pIC50, the -log10 of concentration in molar units.

| chemical_structure | pIC50 |
| --- | --- |
| C#Cc1c(F)ccc2cc(N)cc(-c3c(F)c4nc(OC[C@@]56CCCN5C[C@H](F)C6)nc(N5C[C@H]6CC[C@@H](C5)N6)c4c4cn(C)nc34)c12 | 6.55 |
| C#Cc1c(F)ccc2cc(O)cc(-c3c(F)c4nc(OC[C@@]56CC[C@@H](COC)N5CC(=C)C6)nc(N5C[C@H]6CC[C@@H](C5)N6)c4c4cn(C)nc34)c12 | 7.96 |
| C#Cc1c(F)ccc2cc(O)cc(-c3cc4nc(OC[C@@]56CCCN5CC(=C(F)F)C6)nc(N5C[C@H]6CC[C@@H](C5)N6)c4n4ccnc34)c12 | 7.54 |
| C#Cc1c(F)ccc2cc(O)cc(-c3c(F)c4nc(OCC5(CN6CCC7(CC6)CC7(F)F)CC5)nc(N5C[C@H]6CC[C@@H](C5)N6)c4c4cc(C)oc34)c12 | 7.16 |
| C#Cc1c(F)ccc2cc(O)cc(-c3c(F)c4nc(OC[C@@]56CCCN5C[C@H](F)C6)nc(N5C[C@H]6CC[C@@H](C5)N6)c4c4cn(C)nc34)c12 | 7.34 |
| C#Cc1c(F)ccc2cc(O)cc(-c3cc4nc(OC[C@@]56CCCN5C/C(=C\F)C6)nc(N5C[C@H]6CC[C@@H](C5)N6)c4c4cn(C)nc34)c12 | 7.47 |
| C#Cc1c(F)ccc2cc(O)cc(-c3cc4nc(OCC5(CN6CC[C@@H](F)C6)CC5)nc(N5[C@@H]6CC[C@H]5CNC6)c4n4ccnc34)c12 | 7.03 |
| C#Cc1c(F)ccc2cc(N)cc(-c3cc4nc(OC[C@@]56CCCN5C[C@H](F)C6)nc(N5[C@@H]6CC[C@H]5CNC6)c4n4ccnc34)c12 | 7.28 |
| Cc1cc2c(o1)c(-c1cc(O)cc3ccc(F)c(F)c13)c(F)c1nc(OC[C@@]34CCCN3C[C@H](F)C4)nc(N3C[C@H]4CC[C@@H](C3)N4)c12 | 7.60 |
| C#Cc1c(F)ccc2cc(O)cc(-c3cc4nc(OC[C@]56CC(=C)CN5C[C@@H](F)C6)nc(N5CC6CCC(C5)N6)c4n4ccnc34)c12 | 7.04 |

Ask: Tell me measured pIC50 for "C#Cc1c(F)ccc2cc(O)cc(-c3cc4nc(OCC5(CN6CCOC[C@H]6C)CC5)nc(N5C[C@H]6CC[C@@H](C5)N6)c4n4ccnc34)c12" please.
Reply: 7.30

Ask: Tell me measured pIC50 for "Cc1cc2c(o1)c(-c1cc(O)cc3ccccc13)cc1nc(OC[C@@]34CCCN3C[C@H](F)C4)nc(N3C[C@H]4CC[C@@H](C3)N4)c12" please.
Reply: 5.99

Ask: Tell me measured pIC50 for "Cn1cc2c(n1)c(-c1cc(O)cc3ccc(F)c(F)c13)c(F)c1nc(OC[C@@]34CCCN3C[C@H](F)C4)nc(N3C[C@H]4CC[C@@H](C3)N4)c12" please.
Reply: 6.58

Ask: Tell me measured pIC50 for "C#Cc1c(F)ccc2cc(O)cc(-c3c(F)c4nc(OC[C@@]56CCCN5CC(=C(F)F)C6)nc(N5C[C@H]6CC[C@@H](C5)N6)c4c4cn(C)nc34)c12" please.
Reply: 8.40

Ask: Tell me measured pIC50 for "C#Cc1c(F)ccc2cc(O)cc(-c3cc4nc(OCC5(CN6CCOCC6)CC5)nc(N5C[C@H]6CC[C@@H](C5)N6)c4n4ccnc34)c12" please.
Reply: 6.96
